Test system: UMC-11
Experiment: relative viability (nuclei count vs DMSO), 5 days (fraction); higher = more cells survive
Settings: first compound 0.5 µM
Provide the recorded relative viability for the entries that follow.
Lab note: record just the number, no unit beside it.

Challenge: Missing value: relative viability, UMC-11, entry COc1cc2nccc(Oc3ccc(NC(=O)Nc4cc(C)on4)c(Cl)c3)c2cc1OC [Tivozanib] + CS(=O)(=O)CCNCc1ccc(-c2ccc3ncnc(Nc4ccc(OCc5cccc(F)c5)c(Cl)c4)c3c2)o1 [Lapatinib] (partner 2 µM) . Fill in?
Response given: 0.839

Challenge: Missing value: relative viability, UMC-11, entry Nc1ccn([C@@H]2O[C@H](CO)[C@@H](O)[C@@H]2O)c(=O)n1 [Cytarabine] + C[C@@H](Oc1cc(-c2cnn(C3CCNCC3)c2)cnc1N)c1c(Cl)ccc(F)c1Cl [Crizotinib] (partner 1 µM) . Fill in?
Response given: 0.205

Challenge: Missing value: relative viability, UMC-11, entry COc1cc2nccc(Oc3ccc(NC(=O)Nc4cc(C)on4)c(Cl)c3)c2cc1OC [Tivozanib] + Cc1nc(NC(=O)N2CCC[C@H]2C(N)=O)sc1-c1ccnc(C(C)(C)C(F)(F)F)c1 [Alpelisib] (partner 2 µM) . Fill in?
Response given: 0.959

Challenge: Missing value: relative viability, UMC-11, entry COc1cc2nccc(Oc3ccc(NC(=O)Nc4cc(C)on4)c(Cl)c3)c2cc1OC [Tivozanib] + Cc1cc(Nc2cc(N3CCN(C)CC3)nc(Sc3ccc(NC(=O)C4CC4)cc3)n2)n[nH]1 [Tozasertib] (partner 0.1 µM) . Fill in?
Response given: 0.211

====

Provide the recorded relative viability for the entries that follow.
System: NCI-H1437
Assay: relative viability (nuclei count vs DMSO), 5 days (fraction); higher = more cells survive
Settings: first compound 0.05 µM
Lab note: record just the number, no unit beside it.

Challenge: relative viability for Nc1ccn([C@@H]2O[C@H](CO)[C@@H](O)[C@@H]2O)c(=O)n1 [Cytarabine] + CC(C)C[C@H](NC(=O)[C@H](Cc1ccccc1)NC(=O)c1cnccn1)B(O)O [Bortezomib] (partner 0.002 µM) ?
Response given: 0.243

Challenge: relative viability for Nc1ccn([C@@H]2O[C@H](CO)[C@@H](O)[C@@H]2O)c(=O)n1 [Cytarabine] + Cc1cc(Nc2cc(N3CCN(C)CC3)nc(Sc3ccc(NC(=O)C4CC4)cc3)n2)n[nH]1 [Tozasertib] (partner 0.1 µM) ?
Response given: 0.365

Challenge: relative viability for COc1cc2nccc(Oc3ccc(NC(=O)Nc4cc(C)on4)c(Cl)c3)c2cc1OC [Tivozanib] + CC1(C)CCC(c2ccc(Cl)cc2)=C(CN2CCN(c3ccc(C(=O)NS(=O)(=O)c4ccc(N[C@H](CCN5CCOCC5)CSc5ccccc5)c(S(=O)(=O)C(F)(F)F)c4)cc3)CC2)C1 [Navitoclax] (partner 0.5 µM) ?
Response given: 1.07

Challenge: relative viability for COc1cc2nccc(Oc3ccc(NC(=O)Nc4cc(C)on4)c(Cl)c3)c2cc1OC [Tivozanib] + CC(=O)c1c(C)c2cnc(Nc3ccc(N4CCNCC4)cn3)nc2n(C2CCCC2)c1=O [Palbociclib] (partner 0.5 µM) ?
Response given: 0.286

Challenge: relative viability for Nc1ccn([C@@H]2O[C@H](CO)[C@@H](O)[C@@H]2O)c(=O)n1 [Cytarabine] + Nc1nc2[nH]cc(CCc3ccc(C(=O)N[C@@H](CCC(=O)O)C(=O)O)cc3)c2c(=O)[nH]1 [Pemetrexed] (partner 0.2 µM) ?
Response given: 0.335

Challenge: relative viability for Nc1ccn([C@@H]2O[C@H](CO)[C@@H](O)[C@@H]2O)c(=O)n1 [Cytarabine] + O=C(c1cc(Cc2n[nH]c(=O)c3ccccc23)ccc1F)N1CCN(C(=O)C2CC2)CC1 [Olaparib] (partner 8 µM) ?
Response given: 0.469

Challenge: relative viability for Nc1ccn([C@@H]2O[C@H](CO)[C@@H](O)[C@@H]2O)c(=O)n1 [Cytarabine] + CC1(C)CCC(c2ccc(Cl)cc2)=C(CN2CCN(c3ccc(C(=O)NS(=O)(=O)c4ccc(N[C@H](CCN5CCOCC5)CSc5ccccc5)c(S(=O)(=O)C(F)(F)F)c4)cc3)CC2)C1 [Navitoclax] (partner 0.5 µM) ?
Response given: 0.469

Challenge: relative viability for Nc1ccn([C@@H]2O[C@H](CO)[C@@H](O)[C@@H]2O)c(=O)n1 [Cytarabine] + NC(=O)Nc1cc(-c2cccc(F)c2)sc1C(=O)N[C@H]1CCCNC1 [AZD7762] (partner 0.2 µM) ?
Response given: 0.321

Challenge: relative viability for Nc1ccn([C@@H]2O[C@H](CO)[C@@H](O)[C@@H]2O)c(=O)n1 [Cytarabine] + CS(=O)(=O)N1CCN(Cc2cc3nc(-c4cccc5[nH]ncc45)nc(N4CCOCC4)c3s2)CC1 [Pictilisib] (partner 1 µM) ?
Response given: 0.252

Challenge: relative viability for Nc1ccn([C@@H]2O[C@H](CO)[C@@H](O)[C@@H]2O)c(=O)n1 [Cytarabine] + Nc1ncn([C@H]2C[C@H](O)[C@@H](CO)O2)c(=O)n1 [Decitabine] (partner 2 µM) ?
Response given: 0.48

Challenge: relative viability for COc1cc2nccc(Oc3ccc(NC(=O)Nc4cc(C)on4)c(Cl)c3)c2cc1OC [Tivozanib] + Nc1nc2[nH]cc(CCc3ccc(C(=O)N[C@@H](CCC(=O)O)C(=O)O)cc3)c2c(=O)[nH]1 [Pemetrexed] (partner 0.2 µM) ?
Response given: 0.366

Challenge: relative viability for COc1cc2nccc(Oc3ccc(NC(=O)Nc4cc(C)on4)c(Cl)c3)c2cc1OC [Tivozanib] + N=C(N)NC(=N)NCCc1ccccc1 [Phenformin] (partner 250 µM) ?
Response given: 0.316

====

Tested on: PC-3 [JPC-3]
Assay: relative viability (nuclei count vs DMSO), 5 days (fraction); higher = more cells survive
Conditions: first compound 0.253 µM
Kindly apply the following: TRUE if relative viability is less than 0.8, FALSE in every other case.

Challenge: Given the entry Cc1cnc(-c2cnc(NCCNc3ccc(C#N)cn3)nc2-c2ccc(Cl)cc2Cl)[nH]1 + Cc1nc(Nc2ncc(C(=O)Nc3c(C)cccc3Cl)s2)cc(N2CCN(CCO)CC2)n1 [Dasatinib] (partner 0.075 µM) , would its reported relative viability be below 0.8?
Response given: FALSE

Challenge: Given the entry O=c1[nH]c2ccccc2n1C1CCN(CCCC(c2ccc(F)cc2)c2ccc(F)cc2)CC1 [Pimozide] + N=C(N)NC(=N)NCCc1ccccc1 [Phenformin] (partner 250 µM) , would its reported relative viability be below 0.8?
Response given: TRUE

Challenge: Given the entry Cc1cnc(-c2cnc(NCCNc3ccc(C#N)cn3)nc2-c2ccc(Cl)cc2Cl)[nH]1 + COc1cccc2cc(-c3nc([C@H]4CC[C@H](C(=O)O)CC4)n4ncnc(N)c34)[nH]c12 [OSI-027] (partner 0.5 µM) , would its reported relative viability be below 0.8?
Response given: TRUE

Challenge: Given the entry Cc1cnc(-c2cnc(NCCNc3ccc(C#N)cn3)nc2-c2ccc(Cl)cc2Cl)[nH]1 + NC(=O)Nc1cc(-c2cccc(F)c2)sc1C(=O)N[C@H]1CCCNC1 [AZD7762] (partner 0.2 µM) , would its reported relative viability be below 0.8?
Response given: TRUE

Challenge: Given the entry O=c1[nH]c2ccccc2n1C1CCN(CCCC(c2ccc(F)cc2)c2ccc(F)cc2)CC1 [Pimozide] + CS(=O)(=O)CCNCc1ccc(-c2ccc3ncnc(Nc4ccc(OCc5cccc(F)c5)c(Cl)c4)c3c2)o1 [Lapatinib] (partner 2 µM) , would its reported relative viability be below 0.8?
Response given: TRUE

Challenge: Given the entry Cc1cnc(-c2cnc(NCCNc3ccc(C#N)cn3)nc2-c2ccc(Cl)cc2Cl)[nH]1 + C[C@@H](Oc1cc(-c2cnn(C3CCNCC3)c2)cnc1N)c1c(Cl)ccc(F)c1Cl [Crizotinib] (partner 1 µM) , would its reported relative viability be below 0.8?
Response given: FALSE

Challenge: Given the entry Cc1cnc(-c2cnc(NCCNc3ccc(C#N)cn3)nc2-c2ccc(Cl)cc2Cl)[nH]1 + CC1(C)CCC(c2ccc(Cl)cc2)=C(CN2CCN(c3ccc(C(=O)NS(=O)(=O)c4ccc(N[C@H](CCN5CCOCC5)CSc5ccccc5)c(S(=O)(=O)C(F)(F)F)c4)cc3)CC2)C1 [Navitoclax] (partner 0.5 µM) , would its reported relative viability be below 0.8?
Response given: TRUE

Challenge: Given the entry Cc1cnc(-c2cnc(NCCNc3ccc(C#N)cn3)nc2-c2ccc(Cl)cc2Cl)[nH]1 + Cc1nc(NC(=O)N2CCC[C@H]2C(N)=O)sc1-c1ccnc(C(C)(C)C(F)(F)F)c1 [Alpelisib] (partner 2 µM) , would its reported relative viability be below 0.8?
Response given: FALSE

Challenge: Given the entry O=c1[nH]c2ccccc2n1C1CCN(CCCC(c2ccc(F)cc2)c2ccc(F)cc2)CC1 [Pimozide] + Cc1nc(Nc2ncc(C(=O)Nc3c(C)cccc3Cl)s2)cc(N2CCN(CCO)CC2)n1 [Dasatinib] (partner 0.075 µM) , would its reported relative viability be below 0.8?
Response given: FALSE

Challenge: Given the entry O=c1[nH]c2ccccc2n1C1CCN(CCCC(c2ccc(F)cc2)c2ccc(F)cc2)CC1 [Pimozide] + CS(=O)(=O)N1CCN(Cc2cc3nc(-c4cccc5[nH]ncc45)nc(N4CCOCC4)c3s2)CC1 [Pictilisib] (partner 1 µM) , would its reported relative viability be below 0.8?
Response given: TRUE
